Where these numbers come from: BigSolDB 2.1

Settings: in isopropanol, 288.15 K
experimental readout: solubility (mole fraction)
Please give only the number in your answer, with no unit.

Task: Look at this compound and give its reported solubility (mole fraction). CC(=O)Nc1ccc(OC(=O)c2ccccc2OC(C)=O)cc1
Output: 0.000139

====

Settings: in NMP, 278.15 K
experimental readout: solubility (mole fraction)
Please give only the number in your answer, with no unit.

Task: Look at this compound and give its reported solubility (mole fraction). CC(=O)Nc1ccc(OC(=O)c2ccccc2OC(C)=O)cc1
Output: 0.0209

====

Details: in n-butanol, 283.15 K
experimental readout: solubility (mole fraction)
Please give only the number in your answer, with no unit.

Task: Look at this compound and give its reported solubility (mole fraction). CC(=O)Nc1ccc(OC(=O)c2ccccc2OC(C)=O)cc1
Output: 0.000235

====

Conditions: in n-butanol, 303.15 K
experimental readout: solubility (mole fraction)
Please give only the number in your answer, with no unit.

Task: Look at this compound and give its reported solubility (mole fraction). CC(=O)Nc1ccc(OC(=O)c2ccccc2OC(C)=O)cc1
Output: 0.000557

====

Conditions: in n-propanol, 283.15 K
experimental readout: solubility (mole fraction)
Please give only the number in your answer, with no unit.

Task: Look at this molecule and give its reported solubility (mole fraction). CC(=O)Nc1ccc(OC(=O)c2ccccc2OC(C)=O)cc1
Output: 0.000128

====

Details: in acetonitrile, 318.15 K
experimental readout: solubility (mole fraction)
Please give only the number in your answer, with no unit.

Task: Look at this compound and give its reported solubility (mole fraction). CC(=O)Nc1ccc(OC(=O)c2ccccc2OC(C)=O)cc1
Output: 0.00339
